target: T1, full length human GLP-1R with N-terminal FLAG tag and C-terminal GFP tag, on CHO cells (human, UniProt P43220 24-463); assay: flow cytometry, expressing vs parent CHO cells
T1 construct: whole, on cells; the cell line itself is tied to UniProt P43220; also called FLAG-GLP-1R-GFP; CHO-GLP-1R
Readout type: MFI Ratio

GLP1R-221-092 (antibody, V domains shown, IgG) VH: QVQLVESGGGVVQPGRSLRLSCAASGFIFNNYGMHWVRQAPGKGLEWVAFISYGGSNKYYADSVKGRFTISRDNSKNTLYLQMNSLRAEDTAVYYCAKHMSMQEGAVTGEGQAVKEFIAWLVKGRVRADLVGDAFDVWGQGTLVTVSS VL: QSVLTQPPSVSAAPGQKVTISCSGTTSNIANNFVSWYQQLPGTAPKLLIYDNNKRPPGIPDRFSGSKSGTSATLGITGLQTGDEADYYCGTWDTSLSVGMFGGGTKLTVL | 712
GLP1R-221-084 (antibody, V domains shown, IgG) VH: QVQLVESGGGVVQPGRSLRLSCAASGFAFSNYGMHWVRQAPGKGLEWVAVISSDENNKYYADSVKGRFTISRDNSKNTLYLQMNSLRAEDTAVYYCAKHMSMQEGAVTGEMQAAKEFIAWLVKGRVRADLVGDAFDVWGQGTLVTVSS VL: QSVLTQPPSVSAAPGQKVTISCSGSSSNIADNYVSWYQQLPGTAPKLLIYENNRRPSGIPDRFSGSKSGTSATLGITGLQTGDEADYYCGTWDVSLSVGMFGGGTKLTVL | 1070

API: the following record is the query input.
Problem: Sample GLP1R-221-009 (antibody, V domains shown, IgG) VH: QVQLVESGGGVVQPGRSLRLSCAASGFIFSNYGMHWVRQAPGKGLEWVAVISDEGSNKYYADSVKGRFTISRDNSKNTLYLQMNSLRAEDTAVYYCAKHMSMQEGAVTGAGQAAKEFIAWLVKGRVRADLVGDAFDVWGQGTLVTVSS VL: QSVLTQPPSVSAAPGQKVTISCSGSSSNIGNQYVSWYQQLPGTAPKLLIYDDHKRPSGIPDRFSGSKSGTSATLGITGLQTGDEADYYCGTWDTSLSVGEFGGGTKLTVL — what was its MFI Ratio?
Result: 1120

Where do the numbers come from? From patent US20250340658A1.
